Values from PubChem BioAssay AID179

Listed here are molecules together with their documented pIC50.
Tested on: CEM cells HIV-1 protection, formazan growth assay
Experiment: NCI AIDS Antiviral Assay
Conditions: measured here: growth of uninfected CEM cells
// scale note: pIC50 = -log10(conc_M); give the bare number

Consider the worked cases shown below.
MOLECULE | OBSERVED
S=C1NC2=C(CSC/C2=C\c2cccc(Br)c2)C(c2cccc(Br)c2)N1 (stereo not drawn) | 4.71
OC1C(O)C2CC1C1C2C2(Cl)C(Cl)=C(Cl)C1(Cl)C2(Cl)Cl (stereo not drawn) | 4.90
CCCCOC(=O)c1c2nc3c(C(=O)OCCCC)ccc(C)c3oc-2c(C)c(=O)c1NC(C)=O | 4.61
CC(C)(C)[Si](C)(C)OCC1OC(n2ccc(N)nc2=O)C(O[Si](C)(C)C(C)(C)C)C1O[Si](C)(C)C(C)(C)C (stereo not drawn) | 4.99
CCN(CC)Cc1cc(Nc2c3ccccc3nc3c4ccccc4n(C)c23)cc(CN(CC)CC)c1O | 5.51

Request: Any idea what its pIC50 is? The molecule is CCOC(=O)C(C)c1nc2cc(F)c(N3CCOCC3)cc2[nH]c1=O (stereo not drawn)
Response: 4.02

Request: Any idea what its pIC50 is? The molecule is O=c1c(O)c(-c2ccc(-c3oc4ccccc4c(=O)c3O)cc2)oc2ccccc12
Response: 4.03

Request: Any idea what its pIC50 is? The molecule is O=C(O)CCc1ccc2c(c1)CC1(Cc3ccccc3C1)C2
Response: 3.99

Request: Any idea what its pIC50 is? The molecule is C[C@@H](c1ccccc1)C(CC#N)[C@H]1CCC[C@]1(O)C#Cc1ccc2c(c1)OCO2 (stereo partly drawn)
Response: 4.94

====

Tested on: CEM cells HIV-1 protection, formazan growth assay
Assay: NCI AIDS Antiviral Assay
Conditions: measured here: growth of uninfected CEM cells
Description: The ability of compounds to protect human CEM cells from HIV-1 infection is measured as a screen for new compounds capable of inhibiting the HIV virus. Five concentrations of drug were tested on uninfected and infected cells and cell growth was measured using a soluble formazan assay. […] Compounds that provided at least 50% protection were retested. Compounds that provided at least 50% protection on retest were listed as moderately active. […]
pIC50: −log10 of the molar value.
MEASURED_PARAMETER: pIC50

COMPOUND | TESTED_TARGET | OBSERVED
CCCCCCCCCCCCCCCC(=O)OCC(C[As](=O)(O)O)OC(=O)CCCCCCCCCCCCCCC (centres undefined) | CEM cells HIV-1 protection, formazan growth assay | < 4.42
C[CH2][Sn]([CH2]C)([O]C(=O)c1cc(OC)c(OC)c(OC)c1)[O][Sn]([CH2]C)([CH2]C)[O]C(=O)c1cc(OC)c(OC)c(OC)c1 | CEM cells HIV-1 protection, formazan growth assay | < 5.18
NC(CS)C(=O)O (centres undefined) | CEM cells HIV-1 protection, formazan growth assay | < 3.74
CCCCCCCCCCCCCCCCCCn1[se]c2ccccc2c1=O | CEM cells HIV-1 protection, formazan growth assay | < 5.49
CC1(C)C2CC(O)C1CCC2=O (centres undefined) | CEM cells HIV-1 protection, formazan growth assay | < 3.70

Request: // lookup pIC50 | system=CEM cells HIV-1 protection, formazan growth assay | key= CC(=O)NC(CCCCN)C(=O)NCc1ccccc1 (centres undefined)
Response: < 3.04

Request: // lookup pIC50 | system=CEM cells HIV-1 protection, formazan growth assay | key= COc1ccccc1/C=C/C(=O)c1sc(-c2cccnc2)nc1C
Response: < 4.81

Request: // lookup pIC50 | system=CEM cells HIV-1 protection, formazan growth assay | key= Cc1cc2c(c3c1c1ccccc1n3C)C(=O)c1ccccc1C2=O
Response: < 5.77

Request: // lookup pIC50 | system=CEM cells HIV-1 protection, formazan growth assay | key= O=C(O)CCCC[P+](c1ccccc1)(c1ccccc1)c1ccccc1
Response: < 3.70
